test system: MS2 coat protein; experiment: apparent Kd, MS2 coat protein; higher = weaker binding; RNA-MaP array; theophylline 2 mM where present; conditions: designed as: ON switch for theophylline; no ligand
# reported apparent Kd; entries follow

[
  {
    "ENTRY SEQUENCE": "GGUGGUGUGACGGAUACCAGCCACCGCGGCAACGCAACAUGAGGAUCACCCAUGUUGGGUGGCCCUUGGCAGCUGUCGUGCGGCG",
    "TARGET OR SYSTEM": "MS2 coat protein",
    "apparent Kd": "96.5 nM"
  },
  {
    "ENTRY SEQUENCE": "AUUAAAAGUUGUGAUACCAGACGAACAUGAGGAUCACCCAUGUAACUUUUAGGUGUUGUAGUCCCUUGGCAGCACUAUGUAGUUA",
    "TARGET OR SYSTEM": "MS2 coat protein",
    "apparent Kd": "43.6 nM"
  },
  {
    "ENTRY SEQUENCE": "UCGUGUGUUUCGGAUACCAGUGAAAUCGAUACAUGAGGAUCACCCAUGUGAGAGGAUGUACACCCUUGGCAGCUGUCUGUAGCGG",
    "TARGET OR SYSTEM": "MS2 coat protein",
    "apparent Kd": "48.9 nM"
  },
  {
    "ENTRY SEQUENCE": "GCUGUAAGUGCAGAUACCAGCAGGUGAUAUUUCAUAUGACAUGAGGAUCACCCAUGUAACUGCCCUUGGCAGCUGCACUUACAGC",
    "TARGET OR SYSTEM": "MS2 coat protein",
    "apparent Kd": "373 nM"
  },
  {
    "ENTRY SEQUENCE": "CCUGCUACGGGAAACCGUAGCAGGAAUGAUACCAGUAGGAAAGACUACCCUUGGCAGCAUGGGAAACAUGAGGAUCACCCAUGUU",
    "TARGET OR SYSTEM": "MS2 coat protein",
    "apparent Kd": "56.3 nM"
  },
  {
    "ENTRY SEQUENCE": "UGAACAUGAGGAUCACCCAUGUAGUCAGAUACCAGACACUGCAUGGUCCCUUGGCAGCUGAAGAGCGUUUGCCAAAUAACGUUCA",
    "TARGET OR SYSTEM": "MS2 coat protein",
    "apparent Kd": "162 nM"
  },
  {
    "ENTRY SEQUENCE": "UGUAACAUGAGGAUCACCCAUGUAAGUGAUACCAGAUAAGUAGUAGUCCCUUGGCAGCAUAUUGGGAAAGUGUAUAGUGUAUAUG",
    "TARGET OR SYSTEM": "MS2 coat protein",
    "apparent Kd": "53.3 nM"
  },
  {
    "ENTRY SEQUENCE": "UUUGAUAGGACAGAUACCAGCGUGUUAUAAAACAUGAGGAUCACCCAUGUAGUGAUCAAGCGCCCUUGGCAGCUGGUUUGUUAGG",
    "TARGET OR SYSTEM": "MS2 coat protein",
    "apparent Kd": "188 nM"
  },
  {
    "ENTRY SEQUENCE": "UGUAACAUGAGGAUCACCCAUGUAAGUGAUACCAGAUAAGUAGUAGUCCCUUGGCAGCAUAUUGGGAAAGUGUAUAGUCUAUACG",
    "TARGET OR SYSTEM": "MS2 coat protein",
    "apparent Kd": "52.8 nM"
  },
  {
    "ENTRY SEQUENCE": "AACAUGAGGAUCACCCAUGUAUUGGGUGAUACCAGCCUGAAUAAUGGCCCUUGGCAGCACCACGCUAACUUUAUGUCUGCGAACC",
    "TARGET OR SYSTEM": "MS2 coat protein",
    "apparent Kd": "92.2 nM"
  },
  {
    "ENTRY SEQUENCE": "UUUUAACAUGAGGAUCACCCAUGUAAUGAUACCAGAGACGAAAGUCUCCCUUGGCAGCAUAUAUCAUUACUCAUAGGAAACUAUG",
    "TARGET OR SYSTEM": "MS2 coat protein",
    "apparent Kd": "17.5 nM"
  },
  {
    "ENTRY SEQUENCE": "GCCAGACAUGAGGAUCACCCAUGUAGCGAUACCAGCUCUGUUGUGAGCCCUUGGCAGCGCACUGGCAUCGCGGGUGAUCCUGCAU",
    "TARGET OR SYSTEM": "MS2 coat protein",
    "apparent Kd": "43.4 nM"
  },
  {
    "ENTRY SEQUENCE": "AUGUCGUUGAAUAUAGCGGCUUGGAGUGAUACCAGAAUGAUCUAAUUCCCUUGGCAGCAUUACAUGAGGAUCACCCAUGUUCCAG",
    "TARGET OR SYSTEM": "MS2 coat protein",
    "apparent Kd": "51.1 nM"
  },
  {
    "ENTRY SEQUENCE": "AUCGUACCUGAUGAUACCAGCAUGUGAUCAUAACAUGAGGAUCACCCAUGUAAUCAGUGAUGCCCUUGGCAGCAUAGUCGAUACA",
    "TARGET OR SYSTEM": "MS2 coat protein",
    "apparent Kd": "153 nM"
  }
]
